molecular target: Amine oxidase [flavin-containing] A (Homo sapiens)
Sequence (P21397 whole entry): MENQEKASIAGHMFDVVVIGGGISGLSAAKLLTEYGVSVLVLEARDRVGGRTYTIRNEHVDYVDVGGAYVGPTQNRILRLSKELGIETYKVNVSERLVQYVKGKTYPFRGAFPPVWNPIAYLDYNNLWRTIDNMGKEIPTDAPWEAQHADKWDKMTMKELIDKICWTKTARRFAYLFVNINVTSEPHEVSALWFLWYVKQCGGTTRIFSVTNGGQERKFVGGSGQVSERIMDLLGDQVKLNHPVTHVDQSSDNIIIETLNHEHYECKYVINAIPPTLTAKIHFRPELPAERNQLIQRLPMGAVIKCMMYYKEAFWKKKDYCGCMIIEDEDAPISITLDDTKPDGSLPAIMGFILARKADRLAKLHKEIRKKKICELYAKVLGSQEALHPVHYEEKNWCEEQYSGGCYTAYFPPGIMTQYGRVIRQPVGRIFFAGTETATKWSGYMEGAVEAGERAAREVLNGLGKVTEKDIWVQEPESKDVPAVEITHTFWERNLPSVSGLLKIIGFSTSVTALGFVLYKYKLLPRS
pIC50: −log10 of the molar value.
Reported metric: pIC50

Request - read-out pIC50 | tested on Amine oxidase [flavin-containing] A (Homo sapiens) | molecule `CCN(CC)c1ccc(Nc2nc(-c3ccc(S(C)(=O)=O)cc3)nc3ccccc23)cc1`
< 5.00

---

test: Cmax in ICR mouse at 40 mg/kg, po measured upto 24 hrs by LC-MS/MS analysis; format: ADME, organism-based; details: in vivo
Reported metric: Cmax (ng/mL)
Lab book: enter the figure in ng/mL, no units written.

Dear colleague, I am looking for the recorded Cmax of the following molecule: `CCN(CC)c1ccc(Nc2nc(-c3ccc(S(C)(=O)=O)cc3)nc3ccccc23)cc1`
613

---

test: AUC in ICR mouse at 40 mg/kg, po measured upto 24 hrs by LC-MS/MS analysis; assay type: ADME, organism-based; conditions: in vivo
Reported metric: AUC at 24 h (ng·h/mL)
Lab book: enter the figure in ng·h/mL, no units written.

Dear colleague, I am looking for the recorded AUC at 24 h of the following compound: `CCN(CC)c1ccc(Nc2nc(-c3ccc(S(C)(=O)=O)cc3)nc3ccccc23)cc1`
2250

---

Target: Lysine-specific histone demethylase 2 (Homo sapiens)
Sequence (Q8NB78 whole entry): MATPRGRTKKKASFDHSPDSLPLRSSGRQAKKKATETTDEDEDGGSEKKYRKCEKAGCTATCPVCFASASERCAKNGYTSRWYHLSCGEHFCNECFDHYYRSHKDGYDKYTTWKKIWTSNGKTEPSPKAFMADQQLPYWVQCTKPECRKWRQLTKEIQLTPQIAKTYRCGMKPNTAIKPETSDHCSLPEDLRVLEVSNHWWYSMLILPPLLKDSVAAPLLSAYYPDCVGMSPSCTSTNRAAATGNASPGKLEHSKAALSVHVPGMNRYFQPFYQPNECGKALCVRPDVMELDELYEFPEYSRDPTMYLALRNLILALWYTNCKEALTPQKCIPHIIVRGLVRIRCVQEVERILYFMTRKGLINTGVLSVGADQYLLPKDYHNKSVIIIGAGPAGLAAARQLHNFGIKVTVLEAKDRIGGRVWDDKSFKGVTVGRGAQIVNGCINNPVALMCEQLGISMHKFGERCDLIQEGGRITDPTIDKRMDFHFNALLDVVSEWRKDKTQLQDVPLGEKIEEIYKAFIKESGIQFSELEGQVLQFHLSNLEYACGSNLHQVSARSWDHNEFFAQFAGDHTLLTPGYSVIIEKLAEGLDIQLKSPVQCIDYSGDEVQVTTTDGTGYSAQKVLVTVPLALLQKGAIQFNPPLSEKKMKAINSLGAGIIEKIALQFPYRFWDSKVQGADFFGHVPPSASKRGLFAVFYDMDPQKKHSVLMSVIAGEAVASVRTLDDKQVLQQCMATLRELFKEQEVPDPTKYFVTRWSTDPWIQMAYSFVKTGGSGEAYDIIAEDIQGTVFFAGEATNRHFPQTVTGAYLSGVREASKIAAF
Reported metric: IC50

Dear colleague, I am looking for the recorded IC50 of the following compound: `CCN(CC)c1ccc(Nc2nc(-c3ccc(S(C)(=O)=O)cc3)nc3ccccc23)cc1`
> 10 µM

---

target: MAO-B (Amine oxidase [flavin-containing] B) (Homo sapiens, UniProt P27338); experiment: Inhibition of MAO-B (unknown origin) at 10 uM relative to control
Reported metric: inhibition at 10 µM

Dear colleague, I am looking for the recorded inhibition at 10 µM of the following molecule: `CCN(CC)c1ccc(Nc2nc(-c3ccc(S(C)(=O)=O)cc3)nc3ccccc23)cc1`
< 10%

---

Molecular target: Amine oxidase [flavin-containing] B (Homo sapiens)
Sequence (P27338 whole entry): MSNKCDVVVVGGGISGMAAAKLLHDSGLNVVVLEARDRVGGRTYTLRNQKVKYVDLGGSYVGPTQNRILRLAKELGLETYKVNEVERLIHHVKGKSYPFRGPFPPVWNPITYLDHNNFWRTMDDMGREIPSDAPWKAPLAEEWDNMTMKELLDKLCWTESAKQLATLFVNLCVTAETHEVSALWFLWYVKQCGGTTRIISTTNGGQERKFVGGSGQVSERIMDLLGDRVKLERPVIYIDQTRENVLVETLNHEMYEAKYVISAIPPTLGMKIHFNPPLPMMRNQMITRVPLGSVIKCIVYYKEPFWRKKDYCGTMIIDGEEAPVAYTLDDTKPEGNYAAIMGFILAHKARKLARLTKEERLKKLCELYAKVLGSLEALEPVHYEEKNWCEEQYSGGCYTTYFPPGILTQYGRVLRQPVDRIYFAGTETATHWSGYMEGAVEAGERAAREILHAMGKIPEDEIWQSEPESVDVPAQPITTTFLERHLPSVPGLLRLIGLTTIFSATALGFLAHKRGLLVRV
pIC50: −log10 of the molar value.
Reported metric: pIC50

Request - read-out pIC50 | tested on Amine oxidase [flavin-containing] B (Homo sapiens) | compound `CCN(CC)c1ccc(Nc2nc(-c3ccc(S(C)(=O)=O)cc3)nc3ccccc23)cc1`
< 5.00
